For each of the binders below, state its Fold-Change at 6 hours (10 nM), Fab-pHast internalisation.
- ASSAYED SYSTEM: T1, human SEMA4A expressed on cells (UniProt ID Q9H3S1, isoform 1) (human, UniProt Q9H3S1 33-761)
- T1 sequence: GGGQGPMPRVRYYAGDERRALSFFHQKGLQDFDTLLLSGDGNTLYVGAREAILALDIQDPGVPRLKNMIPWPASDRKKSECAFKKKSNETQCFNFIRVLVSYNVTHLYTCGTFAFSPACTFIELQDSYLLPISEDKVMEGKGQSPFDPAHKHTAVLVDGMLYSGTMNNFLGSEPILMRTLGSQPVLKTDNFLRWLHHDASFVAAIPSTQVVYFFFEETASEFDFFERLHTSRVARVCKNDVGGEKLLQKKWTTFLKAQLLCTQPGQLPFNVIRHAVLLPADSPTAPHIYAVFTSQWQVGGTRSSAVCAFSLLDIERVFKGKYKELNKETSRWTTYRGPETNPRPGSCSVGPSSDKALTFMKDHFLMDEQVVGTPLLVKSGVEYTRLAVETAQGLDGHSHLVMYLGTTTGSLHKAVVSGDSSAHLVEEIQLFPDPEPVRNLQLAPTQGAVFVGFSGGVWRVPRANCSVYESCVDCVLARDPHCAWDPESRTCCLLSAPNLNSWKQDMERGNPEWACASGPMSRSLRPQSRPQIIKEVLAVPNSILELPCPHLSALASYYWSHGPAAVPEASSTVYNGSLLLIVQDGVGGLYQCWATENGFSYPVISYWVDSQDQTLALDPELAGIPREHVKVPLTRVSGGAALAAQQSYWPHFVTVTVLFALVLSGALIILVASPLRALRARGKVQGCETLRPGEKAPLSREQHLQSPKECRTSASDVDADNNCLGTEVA
- ASSAY: cell-based or functional assay
Please state the value followed by its unit.

{"columns": ["BINDER", "REPORTED RESULT"],
 "data": [
  ["5Hg2-5Lg1 human Alya IgG1 conjugated to McMMAF (antibody, V domains shown, McMMAF on the engineered cysteines 239iCys and S442C (EU numbering) of the heavy constant region, Antibody-drug conjugate; human IgG1 Alya constant) VH: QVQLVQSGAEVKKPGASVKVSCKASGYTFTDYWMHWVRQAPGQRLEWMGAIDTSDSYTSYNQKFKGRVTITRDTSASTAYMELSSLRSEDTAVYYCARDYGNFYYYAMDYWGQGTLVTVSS VL: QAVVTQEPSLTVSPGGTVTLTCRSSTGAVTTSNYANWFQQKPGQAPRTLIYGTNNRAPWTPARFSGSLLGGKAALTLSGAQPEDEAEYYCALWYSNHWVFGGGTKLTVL", "144 fold"]
]}

Note: attention shifts to another entry.
Any idea what its Fold-Change at 6 hours (10 nM), Fab-pHast internalisation is? The binder is mouse 5E3 as human Alya IgG1 conjugated to McMMAF (antibody, V domains shown, McMMAF on the engineered cysteines 239iCys and S442C (EU numbering) of the heavy constant region, Antibody-drug conjugate; human IgG1 Alya constant, drug-to-antibody ratio of four; also called Mouse 5E3-McMMAF) VH: QVQLQQPGAELVMPGASVKMSCKASGYTFTDYWMHWVKQRPGQGLEWIGAIDTSDSYTSYNQKFKGKATLTVDESSSTAYMQLSSLTSEDSAVYYCARDYGNFYYYAMDYWGQGTSVTVSS VL: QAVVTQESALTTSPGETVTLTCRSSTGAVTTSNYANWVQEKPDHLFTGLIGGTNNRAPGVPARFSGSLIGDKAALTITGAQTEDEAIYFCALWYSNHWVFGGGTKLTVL
160 fold
